Tested on: 2C TCR mouse CD8+ T cells, vesicle binding, flow cytometry
Assay: modulators of T cell-vesicle binding via LFA-1, confirmation, powder samples, single concentration, mouse 2C TCR, flow cytometry (AID 504568);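 also: lower values mean less vesicle binding and point to an inhibitor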
Settings: measured here: CD8+ cell vesicle fluorescence mean, stronger effect = lower value
Kindly state mean fluorescence percent response for each of the entries shown.
One number for each entry, in %.

Consider the worked cases shown below.
compound	mean fluorescence percent response [%]
COc1ccccc1NS(=O)(=O)c1cc(NC(=O)CNC(=O)c2cc(C)cc(C)c2)ccc1C	153
CN(C)S(=O)(=O)c1cccc(-n2sc3ccccc3c2=O)c1	109
CC(=O)c1ccc(-c2csc(N3CCC(C(N)=O)CC3)n2)cc1	153
Cc1ccc(S(=O)(=O)N2CCN(C(=O)CNC(=O)c3ccc(Cl)cc3)CC2)cc1	165
CCOC(=O)c1c(C=O)c2ccccc2n1CC	148

Provide mean fluorescence percent response for all items below, preserving their order.
1. O=C(NCCC1=CCCCC1)C(=O)NCC(c1ccco1)N1CCN(c2ccccc2F)CC1 (stereo not drawn)
2. O=C(Cn1cc(C(F)(F)F)cc(Cl)c1=O)NCCc1ccc(Cl)cc1Cl
3. Cc1ccc(O)c(CCc2ccccc2)n1
4. CCCNC(=O)c1nc2ncc(Br)cn2n1
5. O=C(O)C1CCC(Cn2c(SCc3cc(=O)n4cc(Cl)ccc4n3)nc3ccsc3c2=O)CC1 (stereo not drawn)
6. CCOC(=O)C1CCCN(S(=O)(=O)c2ccc(F)c(C(=O)Nc3ccc(F)c(F)c3)c2)C1 (stereo not drawn)
7. COc1ccc(CNC(=O)c2cccnc2SC)cc1OC
8. CC(Sc1nc2ccccc2[nH]1)C(=O)NC1CCCCC1C (stereo not drawn)

Output:
1: 116; 2: 136; 3: 120; 4: 154; 5: 128; 6: 162; 7: 163; 8: 141

Source of measurements: PubChem BioAssay AID504568
